# measured-target: Glycogen synthase kinase-3 beta (Homo sapiens)
# test-protocol: concentration-response blocking of human GSK3B – biochemical, luminescence, cell-free homogeneous, retest, dose response (AID 434954)
measured-attribute: EC50

Task: Returns the measured EC50 for the input molecule. Input: CCOC(=O)C1CCN(CC(O)COC(CC)c2ccccc2)CC1 (stereo not drawn)
Output: > 300 µM

Task: Returns the measured EC50 for the input molecule. Input: NC(=O)c1ccc(Oc2ccc(Cl)c3ccccc23)c([N+](=O)[O-])c1
Output: > 300 µM

Task: Returns the measured EC50 for the input molecule. Input: Nn1c(-c2cccs2)nc2sc3c(c2c1=O)CCCC3
Output: > 300 µM

Task: Returns the measured EC50 for the input molecule. Input: c1ccc2c(c1)OCC(CNCC1COc3ccccc3O1)O2 (stereo not drawn)
Output: > 300 µM

Task: Returns the measured EC50 for the input molecule. Input: CCCCOc1ccc(C=NNC(=O)c2nnn(-c3nonc3N)c2CN2CCCCCC2)cc1
Output: 55.3 µM

Task: Returns the measured EC50 for the input molecule. Input: CCC(N=C(S)NC1CCCCC1)c1ccccc1 (stereo not drawn)
Output: > 300 µM

Task: Returns the measured EC50 for the input molecule. Input: CCN1CCN(Cc2ccc(NC(=O)c3ccc(C)c(/C=C/c4cnc(Nc5cc(N6CCNCC6)nc(C)n5)cn4)c3)cc2C(F)(F)F)CC1
Output: > 300 µM

Task: Returns the measured EC50 for the input molecule. Input: CC(=O)CSc1nc(-c2cccs2)c(C#N)c(=O)[nH]1
Output: > 300 µM

Task: Returns the measured EC50 for the input molecule. Input: COc1ccc(NC(=O)c2cccc(N3C(=O)c4cccc([N+](=O)[O-])c4C3=O)c2)cc1
Output: > 300 µM

Task: Returns the measured EC50 for the input molecule. Input: CC[n+]1c(CC=Nc2ccccc2)sc2ccccc21
Output: > 300 µM

Task: Returns the measured EC50 for the input molecule. Input: c1ccc(-c2nnc(-c3ccncc3)nc2-c2ccccc2)cc1
Output: > 300 µM

----------
# measured-target: UniProt:P49841
# test-protocol: concentration-response blocking of human GSK3B – biochemical, luminescence, cell-free homogeneous, retest, dose response (AID 434954)
pEC50: −log10 of the molar value.
compounds and their reported pEC50

compound | pEC50
CCCCn1nc(NC(=O)COC)c2cc3cc(OC)ccc3nc21 | < 3.52
O=C(NCCCN1CCCCC1)c1ccc2c(c1)NC(=O)C(N1CCCCC1)S2 (stereo unspecified) | < 3.52
COc1cccc(N(CC(=O)NCC2CCCO2)C(=O)CCC(=O)Nc2nccs2)c1 (stereo unspecified) | < 3.52
CC1=C(C(=O)Nc2ccccc2F)C(c2cccs2)C2C(=O)CCCC2=N1 (stereo unspecified) | < 3.52

Task: Returns the measured pEC50 for the input compound. Input: O=C1NC(c2cccs2)Nc2sc3c(c21)CCCC3 (stereo unspecified)
Output: < 3.52

Task: Returns the measured pEC50 for the input compound. Input: COc1cc(CN=O)ccc1Oc1ccc([N+](=O)[O-])cc1[N+](=O)[O-]
Output: < 3.52

----------
# measured-target: Glycogen synthase kinase-3 beta (Homo sapiens, UniProt P49841)
# Sequence (P49841 whole entry): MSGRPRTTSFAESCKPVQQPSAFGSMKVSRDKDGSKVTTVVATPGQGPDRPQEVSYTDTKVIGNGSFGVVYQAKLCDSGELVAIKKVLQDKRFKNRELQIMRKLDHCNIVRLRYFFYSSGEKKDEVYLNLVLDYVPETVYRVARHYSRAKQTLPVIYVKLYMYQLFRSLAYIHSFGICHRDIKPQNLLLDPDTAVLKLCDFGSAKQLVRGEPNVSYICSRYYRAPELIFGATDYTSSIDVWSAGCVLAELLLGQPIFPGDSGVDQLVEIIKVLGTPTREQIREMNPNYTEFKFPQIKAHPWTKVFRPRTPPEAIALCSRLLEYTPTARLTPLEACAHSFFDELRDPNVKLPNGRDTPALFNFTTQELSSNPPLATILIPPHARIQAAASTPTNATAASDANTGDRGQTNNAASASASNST
# test-protocol: concentration-response blocking of human GSK3B – biochemical, luminescence, cell-free homogeneous, retest, dose response (AID 434954)
So basically: is EC50 under 20 µM? Then Condition met. Not under? Then Condition not met.

compound | measured-target | class-assignment
Cc1ccc(SCCc2ccc(C)nc2)cc1 | Glycogen synthase kinase-3 beta (Homo sapiens, UniProt P49841) | Condition not met

# ---- query compound ----
Task: A record lists O=c1c(O)c(-c2ccc(O)c(O)c2)oc2cc(O)cc(O)c12 . Is its EC50 below 20 µM?
Output: Condition met

----------
# measured-target: Glycogen synthase kinase-3 beta (Homo sapiens, UniProt P49841)
# test-protocol: concentration-response blocking of human GSK3B – biochemical, luminescence, cell-free homogeneous, retest, dose response (AID 434954)
pEC50: −log10 of the molar value.
measured-attribute: pEC50

compound | measured-target | measured-attribute | reported
Nc1nc(Nc2cccc(F)c2)nc(N2CCOCC2)c1[N+](=O)[O-] | Glycogen synthase kinase-3 beta (Homo sapiens, UniProt P49841) | pEC50 | < 3.52
CCC(C)NCCOCCOc1ccc(Cl)cc1Br (stereo not drawn) | Glycogen synthase kinase-3 beta (Homo sapiens, UniProt P49841) | pEC50 | < 3.52

As a next step, examine the compound that follows.
Task: Returns the measured pEC50 for the input compound. Input: CCn1nc(NC(=O)CC(C)C)c2cc3ccc(C)cc3nc21
Output: < 3.52

----------
# measured-target: Glycogen synthase kinase-3 beta (Homo sapiens, UniProt P49841)
# test-protocol: concentration-response blocking of human GSK3B – biochemical, luminescence, cell-free homogeneous, retest, dose response (AID 434954)
compounds and their reported EC50

Below are worked cases with known answers.
compound | measured-attribute | reported
CC1(C)CC(=O)C=C(Nc2cc(-c3ccccc3)n[nH]2)C1 | EC50 | 12.9 µM
COc1ccc(OC)c(Nc2nc(NCc3ccco3)nc(N)c2[N+](=O)[O-])c1 | EC50 | > 300 µM
COc1ccc2nc(NC(=O)C3CCCO3)sc2c1 (stereo not drawn) | EC50 | > 300 µM
CN(C)/N=N/c1ccc(S(N)(=O)=O)cc1 [SMR000272943] | EC50 | > 300 µM
CCN(CC)CCNc1nc(SC)nc2sc3c(c12)CCN(C)C3 | EC50 | > 300 µM
O=C(CSc1nnc(-c2ccco2)n1Cc1ccco1)N1CCOCC1 | EC50 | > 300 µM
CC(C)(C)C(=O)c1cnc(Nc2ccccc2)s1 | EC50 | > 300 µM
COc1ccc(-c2nn(-c3ccccc3)cc2CN=Nc2ccccn2)cc1OC [MLS000388893] | EC50 | 66.1 µM

Task: Returns the measured EC50 for the input compound. Input: CCC(=NNC(=O)CSCc1ccccc1Cl)c1ccc2c(c1)OCCO2
Output: > 300 µM

Task: Returns the measured EC50 for the input compound. Input: CCOC(=O)c1cnc2ccc(OC)cc2c1Nc1ccc2c(c1)OCCO2 [SMR000196288]
Output: 16.7 µM

Task: Returns the measured EC50 for the input compound. Input: COc1ccccc1Nc1nc(N(C)c2ccccc2)nc(N)c1[N+](=O)[O-] [SMR000542836]
Output: > 300 µM

Task: Returns the measured EC50 for the input compound. Input: N#Cc1c(-c2ccccc2)nc(SCC(=O)N(c2ccccc2)c2ccccc2)[nH]c1=O
Output: > 300 µM

Task: Returns the measured EC50 for the input compound. Input: Oc1ccc(-c2nncn2-c2ccccc2)cc1 [SMR000274861]
Output: 7.15 µM

Task: Returns the measured EC50 for the input compound. Input: COc1ccc2c(c1)-c1c(ssc1=S)C(C)(C)N2C(=O)CSC1=NCCS1
Output: > 300 µM

Task: Returns the measured EC50 for the input compound. Input: CCOC(=O)C1C(C)=Nc2ncnn2C1c1cccnc1 (stereo not drawn)
Output: > 300 µM

----------
# measured-target: Glycogen synthase kinase-3 beta (Homo sapiens)
# test-protocol: concentration-response blocking of human GSK3B – biochemical, luminescence, cell-free homogeneous, retest, dose response (AID 434954)
pEC50: −log10 of the molar value.
measured-attribute: pEC50

compound | pEC50
COc1cccc(C(=O)Nc2nnc(C(C)C)s2)c1 | < 3.52
Cc1ccc(Nc2nc(NCCCN3CCOCC3)nc(N)c2[N+](=O)[O-])cc1 | < 3.52
Cc1nc(Nc2ccccc2)sc1C | < 3.52
Cc1ccc2cc3c(NC(=O)C4CCCO4)nn(CC(C)C)c3nc2c1 (stereo not given) | < 3.52

Task: Give the reported pEC50 for Nc1c(C(=O)c2ccccc2)sc(Nc2ccccc2)c1S(=O)(=O)c1ccccc1 (system: Glycogen synthase kinase-3 beta (Homo sapiens)).
Output: < 3.52

----------
# measured-target: UniProtKB P49841
# test-protocol: concentration-response blocking of human GSK3B – biochemical, luminescence, cell-free homogeneous, retest, dose response (AID 434954)
measured-attribute: EC50

compound | measured-target | EC50
O=C(CN1C(=O)CCC1=O)Nc1ccc(Cc2ccc(NC(=O)CN3C(=O)CCC3=O)cc2)cc1 | UniProtKB P49841 | > 300 µM

Task: Returns the measured EC50 for the input compound. Input: CCCCC(=O)Nc1ncc(S(=O)(=O)c2ccc([N+](=O)[O-])cc2)s1
Output: > 300 µM

Task: Returns the measured EC50 for the input compound. Input: CCC(C)Nc1nc(N)c([N+](=O)[O-])c(Nc2ccccc2OC)n1 (stereo unspecified) [SMR000434817]
Output: 0.632 µM

Task: Returns the measured EC50 for the input compound. Input: O=C(O)c1cc(-c2ccc(CN=Nc3ccc(Cl)cc3)o2)ccc1Cl
Output: > 300 µM

Task: Returns the measured EC50 for the input compound. Input: c1ccc(Nc2ccnc(Nc3ccccc3)n2)cc1
Output: 37.6 µM

Task: Returns the measured EC50 for the input compound. Input: COc1cccc(C(=O)C(C#N)=C(SC)SC)c1 [MLS000859112]
Output: > 300 µM
